Source: the supplement of paper PMC11908140

B1: library; numbered along this chain (parent)
chain: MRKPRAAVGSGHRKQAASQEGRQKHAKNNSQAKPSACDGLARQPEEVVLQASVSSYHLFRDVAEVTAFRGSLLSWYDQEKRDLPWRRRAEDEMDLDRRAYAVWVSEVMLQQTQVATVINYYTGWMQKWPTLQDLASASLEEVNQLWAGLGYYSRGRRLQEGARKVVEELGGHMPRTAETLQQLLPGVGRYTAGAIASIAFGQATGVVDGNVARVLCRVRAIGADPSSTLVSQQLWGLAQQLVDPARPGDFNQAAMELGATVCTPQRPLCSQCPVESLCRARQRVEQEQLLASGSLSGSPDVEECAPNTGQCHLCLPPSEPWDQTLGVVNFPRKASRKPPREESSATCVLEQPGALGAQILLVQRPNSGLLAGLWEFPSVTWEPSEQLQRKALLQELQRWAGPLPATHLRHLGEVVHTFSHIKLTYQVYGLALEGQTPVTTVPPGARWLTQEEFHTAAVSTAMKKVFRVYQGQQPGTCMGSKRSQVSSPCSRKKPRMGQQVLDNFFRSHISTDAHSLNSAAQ

Variants of: B1
ASSAY PROTOCOL: 8OG:A repair function score (normalized; synonymous = 0, nonsense = -1) (normalized log-likelihood score); higher = more repair activity (WT-like);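 note: cells sorted at 72 h after reporter transfection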
DETAILS: with 8OG:A DNA repair reporter (GFP) in HEK-293 MUTYH KO cells
Could you please report measured 8OG:A repair function score for the items listed next?
Numbers only.

Field: example entries. Status: answers known.
In one line, give reported 8OG:A repair function score of the entry `R283G` . -0.364

Identify measured 8OG:A repair function score associated with `Q498A` 0.011

Please supply the value of reported 8OG:A repair function score for the item `A199D` -1.07

Report measured 8OG:A repair function score; entry is `S227W` -0.244

Annotate the variant `G209P` with its measured 8OG:A repair function score. -0.887

// for each variant below, give its 8OG:A repair function score
1. E92H
2. S335C
3. A431M
4. E106M

1. -0.0814
2. -0.0251
3. -0.23
4. -0.994

Please go through the list and note 8OG:A repair function score for each variant.
1. A6F
2. R495D
3. S153L
4. G148C
5. A520G
6. S296I
7. L134D

0.0517
0.0213
0.0439
-0.72
0.00375
-0.0485
-1.82

Count: 5. Required value per item: 8OG:A repair function score.
1. G161H
2. I221S
3. L241W
4. T66E
5. P316N

-1.12
-0.991
-0.384
0.00467
-0.154

// input: 5 variants below; output: 8OG:A repair function score for each
1. R87I
2. A461T
3. R266W
4. L169P
5. L290D

1. -0.0226
2. -0.23
3. -0.135
4. -0.645
5. -0.0753

Hey, quick one: what's 8OG:A repair function score for each of these?
1. R279L
2. S483E
3. R217W
4. K337Q
5. E79Q
6. N143Q

-0.146
-0.0311
-0.993
-0.0917
-0.0185
-0.222

For each of the variants below, note its 8OG:A repair function score.
1. W75G
2. E303P

1: -1.2; 2: -0.218

Value sought for every listed variant: 8OG:A repair function score.
1. L131T
2. V500G
3. V379R
4. F418T
5. E45T
6. L145A

-0.0104
0.00844
-0.476
-0.165
0.0748
0.0661

Would you mind giving 8OG:A repair function score for every variant in the list below?
1. K492D
2. M93C
3. T260A
4. C216R
5. Q181Y

1. -0.0117
2. 0.00101
3. -0.056
4. -0.931
5. 0.00604
